Species on record: Homo sapiens
Experiment: Selectivity ratio of IC50 for human EP4 receptor to IC50 for human EP3 receptor
Would you mind telling me the reported Ratio IC50 of each entry?
I'd appreciate a reply containing only the number, no unit.

Query: Would you mind telling me what Ratio IC50 value was observed for `O=C(COc1cccc2[nH]cc(S(=O)(=O)c3ccc(Cl)c(Cl)c3)c12)NS(=O)(=O)c1cc(Cl)c(Cl)s1` ?
Response: 4220

Query: Would you mind telling me what Ratio IC50 value was observed for `O=C(COc1cccc2[nH]cc(Sc3ccc(Cl)cc3Cl)c12)NS(=O)(=O)c1cc(Cl)c(Cl)s1` ?
Response: 8880

Query: Would you mind telling me what Ratio IC50 value was observed for `O=C(COc1cccc2[nH]cc(Sc3nc4ccccc4s3)c12)NS(=O)(=O)c1cc(Cl)c(Cl)s1` ?
Response: 2390

Query: Would you mind telling me what Ratio IC50 value was observed for `Cc1ccc(Sc2c[nH]c3cccc(OCC(=O)NS(=O)(=O)c4cc(Cl)c(Cl)s4)c23)c(C)c1` ?
Response: 1860

Query: Would you mind telling me what Ratio IC50 value was observed for `O=C(COc1cccc2[nH]cc(Sc3ccc4ccccc4c3)c12)NS(=O)(=O)c1cccc(Cl)c1` ?
Response: 1360

Query: Would you mind telling me what Ratio IC50 value was observed for `O=C(COc1cccc2[nH]cc(Sc3ccc(Cl)c(Cl)c3)c12)NS(=O)(=O)c1cc(Cl)c(Cl)s1` ?
Response: 1770

====

Experiment: Metabolic stability in human liver microsomes at 5 uM after 30 mins
Assay type: ADME, Microsome
Conditions: read-out: Activity
parameter: remaining at 0.5 h, 5 µM
# number then unit; no other words

Query: Would you mind telling me what remaining at 0.5 h, 5 µM value was observed for `O=C(COc1cccc2[nH]cc(Sc3ccc4ccccc4n3)c12)NS(=O)(=O)c1cc(Cl)c(Cl)s1` ?
Response: 23%

Query: Would you mind telling me what remaining at 0.5 h, 5 µM value was observed for `O=C(COc1cccc2[nH]cc(S(=O)(=O)c3ccc4ccccc4n3)c12)NS(=O)(=O)c1cc(Cl)c(Cl)s1` ?
Response: 60%

Query: Would you mind telling me what remaining at 0.5 h, 5 µM value was observed for `O=C(COc1cccc2[nH]cc(S(=O)(=O)c3ccc(Cl)cc3Cl)c12)NS(=O)(=O)c1cc(Cl)c(Cl)s1` ?
Response: 79%

Query: Would you mind telling me what remaining at 0.5 h, 5 µM value was observed for `O=C(COc1cccc2[nH]cc(Sc3ccc(Cl)cc3)c12)NS(=O)(=O)c1cc(Cl)c(Cl)s1` ?
Response: 52%

====

Would you mind telling me the reported IC50 of each entry?
Target: Prostaglandin E2 receptor EP3 subtype (Homo sapiens, UniProt P43115)
Sequence (P43115 whole entry): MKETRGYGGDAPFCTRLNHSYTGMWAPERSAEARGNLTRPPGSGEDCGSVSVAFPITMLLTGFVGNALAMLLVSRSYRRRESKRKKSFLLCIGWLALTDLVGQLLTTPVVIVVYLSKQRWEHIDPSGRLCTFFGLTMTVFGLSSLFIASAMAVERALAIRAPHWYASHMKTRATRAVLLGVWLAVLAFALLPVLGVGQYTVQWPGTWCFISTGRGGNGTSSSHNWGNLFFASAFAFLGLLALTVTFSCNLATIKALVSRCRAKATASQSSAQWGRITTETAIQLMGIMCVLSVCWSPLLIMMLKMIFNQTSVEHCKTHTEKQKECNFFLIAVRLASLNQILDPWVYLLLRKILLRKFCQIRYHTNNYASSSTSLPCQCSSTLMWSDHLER
Experiment: Displacement of [3H]PGE2 from human EP3 receptor
Give just the numeric value; nM need not be written.

Query: Would you mind telling me what IC50 value was observed for `O=C(COc1cccc2[nH]cc(Sc3ccc4ccccc4c3)c12)NS(=O)(=O)c1cccs1` ?
Response: 3

Query: Would you mind telling me what IC50 value was observed for `COc1ccc(S(=O)(=O)c2c[nH]c3cccc(OCC(=O)NS(=O)(=O)c4cc(Cl)c(Cl)s4)c23)cc1` ?
Response: 30

Query: Would you mind telling me what IC50 value was observed for `O=C(COc1cccc2[nH]cc(Sc3ccc(Cl)cc3Cl)c12)NS(=O)(=O)c1cc(Cl)c(Cl)s1` ?
Response: 27.6

Query: Would you mind telling me what IC50 value was observed for `Cn1nnnc1Sc1c[nH]c2cccc(OCC(=O)NS(=O)(=O)c3cc(Cl)c(Cl)s3)c12` ?
Response: 8.2

Query: Would you mind telling me what IC50 value was observed for `O=C(COc1cccc2[nH]cc(S(=O)(=O)c3ccc4ccccc4c3)c12)NS(=O)(=O)c1cccc(Cl)c1` ?
Response: 5.9

Query: Would you mind telling me what IC50 value was observed for `COc1ccc(S(=O)(=O)c2c[nH]c3cccc(OCC(=O)NS(=O)(=O)c4cc(Cl)c(Cl)s4)c23)cc1OC` ?
Response: 11.4
